assay: gradient 5% acetonitrile 3 min, to 50% in 2 min, to 85% in 15 min, held 3 min, 100 µL/min; details: column: Zorbax Extend-C18 2.1 x 50 mm; eluents: water / acetonitrile, 0.1% formic acid
Readings of RP-LC retention time for the listed compounds
Give just the numeric value; s need not be written.

O=C(Nc1nccnc1C(=O)NCc1cccnc1)c1ccccc1 ... 584
CCc1nccn1Cc1nc(-c2cccc(F)c2)no1 ... 625
CN1CCN(c2ccc([N+](=O)[O-])c3no[n+]([O-])c23)CC1 ... 631
Cc1ccc(S(=O)(=O)N2CCC(C)CC2)cc1-c1nnc(-c2ccc(F)cc2)o1 ... 1220
CCOc1ccccc1-c1nc(Cn2cnc3onc(C)c3c2=O)c(C)o1 ... 928
CCn1ccc2c(cc(C(=O)Nc3ccc(Br)cc3)n2C)c1=O ... 844

Exercise: Please look at this compound and report its RP-LC retention time: "CC(C)n1c(N2CCN(C(=O)c3ccc(F)c(F)c3)CC2)cc(=O)n(C(C)C)c1=O"
Key: 867

Exercise: Determine from records and report RP-LC retention time for "COCc1cc(=O)n(CC(=O)Nc2ccc(OC)cc2)c(N2CCOCC2)n1"
Key: 755

Exercise: Please give the documented RP-LC retention time of "CCCN1C(=O)COc2ccc(-c3csc(NC(=O)c4cccc(Cl)c4)n3)cc21"
Key: 1150

====

Consider the following compounds and their measured RP-LC retention time readings.
assay: gradient 5% acetonitrile 3 min, to 50% in 2 min, to 85% in 15 min, held 3 min, 100 µL/min; details: column: Zorbax Extend-C18 2.1 x 50 mm; eluents: water / acetonitrile, 0.1% formic acid
Enter your answer as a number in s; do not include the unit.

Known results for compounds:
CCOC(=O)Cn1c2ccccc2n2nc(C)c(=O)nc12 ... 699
Cc1noc(C)c1C(=O)N1CCCC1c1ccccc1Cl (stereo not given) ... 838
O=S(=O)(c1ccc(F)cc1)N1CCC2(CC1)NCCN=C2NCc1ccccc1F ... 692

Exercise: In one line, give reported RP-LC retention time of the entry "Cc1cn(-c2ccc(SCC(=O)NCc3ccc4c(c3)OCO4)nn2)cn1" .
Key: 558

Exercise: For the compound "COCCNC(=O)COc1cc(C)nc(-c2ccc(Cl)cc2)n1" , give its measured RP-LC retention time value.
Key: 828

Exercise: Give the value of RP-LC retention time reported for the following: "Cc1csc(-c2cc(S(=O)(=O)N3CCN(c4ncccn4)CC3)c(C)n2C)n1"
Key: 958

Exercise: Supply measured RP-LC retention time of "Cc1sc(NC(=O)CCn2c(=O)sc3ccccc32)nc1-c1ccc(Cl)cc1" in your reply.
Key: 1110

Exercise: Please report RP-LC retention time for the following compound: CCOC(=O)c1c(C)[nH]c(C(=O)N2CCC(C(C)C(=O)N3CCN(c4ccccc4)CC3)CC2)c1C (stereo not given)
Key: 871

====

assay: gradient 5% acetonitrile 3 min, to 50% in 2 min, to 85% in 15 min, held 3 min, 100 µL/min; settings: column: Zorbax Extend-C18 2.1 x 50 mm; eluents: water / acetonitrile, 0.1% formic acid
// classify(record): look up RP-LC retention time in ranges group 1 (below 700 s), group 2 (700 s to below 800 s), group 3 (800 s or more)

Answered cases to consult:
CCS(=O)(=O)c1nc2ccc(NS(=O)(=O)c3cnc[nH]3)cc2s1 ... group 1
Cc1ccc(N2CC(c3noc(-c4ccccc4C)n3)CC2=O)cc1 (centres undefined) ... group 3
CC(=O)N1CC(C)Oc2ccc(S(=O)(=O)N3CCC(c4ccncc4)CC3)cc21 (centres undefined) ... group 1
Cc1nc(Nc2ccccn2)sc1C(=O)N1CCc2ccccc2C1 ... group 3
CCCn1cc(S(=O)(=O)N2CCN(c3cccc(Cl)c3)CC2)c2cccnc21 ... group 2
Cc1ccc(-c2noc(C3CCCN3C(=O)C3CC(=O)N(c4ccc(C)cc4)C3)n2)cc1 (centres undefined) ... group 3
Cc1nc(-c2ccc3c(c2)CCN3C(=O)COc2ccc(F)cc2)cs1 ... group 3
COc1ccc(C)cc1NC(=O)Cn1c(N)nc(C)cc1=O ... group 1
Cc1nc(Cn2cccc2C(=O)N2CCc3ccccc32)no1 ... group 3
COc1cccc(S(=O)(=O)N2CCC(n3cnnc3-c3ccccc3)CC2)c1 ... group 2

Exercise: Band for "O=S(=O)(c1cccc2cccnc12)N1CCCn2nc(-c3cccnc3)cc2C1" ?
Key: group 1

Exercise: State the class of the compound shown: "COc1ccc(NC(=O)N(C)CCc2noc(COc3ccc(F)cc3)n2)c(OC)c1"
Key: group 3

Exercise: Returns: class label. Input: "O=c1c2nnn(-c3cccc(F)c3)c2ncn1Cc1cccnc1"
Key: group 1

====

assay: gradient 5% acetonitrile 3 min, to 50% in 2 min, to 85% in 15 min, held 3 min, 100 µL/min; conditions: column: Zorbax Extend-C18 2.1 x 50 mm; eluents: water / acetonitrile, 0.1% formic acid
Attribute: RP-LC retention time

Please review the entries below; each comes with its answer.
CC(NC(=O)c1ccccc1)C(=O)N1CCN(c2cc(C(C)C)n3cnnc3n2)CC1 (stereo not given) ... 604 s
CCC(=O)N1CCc2cc(C(=O)NCC3CCCO3)ccc21 (stereo not given) ... 642 s
Cc1ccc(S(=O)(=O)[C@H]2CS(=O)(=O)C[C@@H]2N2CCN(c3ccccc3)CC2)cc1 ... 920 s
COc1nc2ccccc2nc1N1CCCC(C(=O)NCc2ccco2)C1 (stereo not given) ... 951 s
O=C(c1csc(Nc2ccc(OC(F)F)cc2)n1)N1CCN(c2ncccn2)CC1 ... 774 s

Exercise: Supply recorded RP-LC retention time for "Cc1ccc(N2C(=O)CCS2(=O)=O)cc1S(=O)(=O)N1CCC(C(N)=O)CC1" here.
Key: 638 s

Exercise: State its RP-LC retention time: "CCN(CC)C(=O)c1cc(=O)[nH]c2ccccc12"
Key: 624 s

====

experiment: gradient 5% acetonitrile 3 min, to 50% in 2 min, to 85% in 15 min, held 3 min, 100 µL/min; conditions: column: Zorbax Extend-C18 2.1 x 50 mm; eluents: water / acetonitrile, 0.1% formic acid
Reported RP-LC retention time is given for each of the following compounds.
State the answer as a number, implicitly in s.

Sample records with RP-LC retention time:
Cc1cc(C(=O)N(C)C2CCc3nnc(C)n3CC2)c(C)n1Cc1ccco1 (centres undefined) ... 654
COc1ccc(-c2cn3c(CC(=O)Nc4ccccc4Cl)csc3n2)cc1OC ... 728
O=C(Cc1nnc(-c2ccc3ncccc3c2)o1)N1CCN(c2ccccc2F)CC1 ... 753

Exercise: Identify measured RP-LC retention time corresponding to CC(C)CC(NC(=O)[C@H]1CCCN1C(=O)OCc1ccccc1)C(=O)NCC(=O)NO (some centres undefined)
Key: 648

Exercise: Supply recorded RP-LC retention time for "CC(C)NC(=O)Cn1nc2c3cc(-c4ccc(F)cc4)nn3ccn2c1=O" here.
Key: 785

====

RP-LC retention time reference
assay: gradient 5% acetonitrile 3 min, to 50% in 2 min, to 85% in 15 min, held 3 min, 100 µL/min; conditions: column: Zorbax Extend-C18 2.1 x 50 mm; eluents: water / acetonitrile, 0.1% formic acid
Respond numerically; units are s and should not be typed.

CO[C@H]1C(=O)N(C(C)C)[C@H]1C1CCN(S(=O)(=O)Cc2ccccc2F)CC1 ... 831
COc1c(C(=O)NCCN2CCC(C)CC2)sc2ccc(Cl)cc12 ... 710

Exercise: State, in one line, measured RP-LC retention time of "CN(C)CCNC(=O)c1ccc(Cn2nc(N3CCN(c4ccc(F)cc4)CC3)ccc2=O)o1"
Key: 588

====

experiment: gradient 5% acetonitrile 3 min, to 50% in 2 min, to 85% in 15 min, held 3 min, 100 µL/min; settings: column: Zorbax Extend-C18 2.1 x 50 mm; eluents: water / acetonitrile, 0.1% formic acid
# note: boundary value 800 s maps to 0 (no); RP-LC retention time below it maps to 1 (yes)

Below are worked cases with known answers.
Cc1sc(C)c(S(=O)(=O)Nc2ccc(F)cc2)c1-c1cc(C(F)(F)F)on1 ... 0 (no)
COc1ccc(Cc2nc3nccc(-c4ccccn4)n3n2)cc1 ... 1 (yes)
CCOC(=O)c1c(S(=O)(=O)N2CCC(C(=O)Nc3ccc(F)cc3C)CC2)c(C)n(CC)c1C ... 0 (no)
CCOc1ccc(-n2ccn3cc(-c4ccc(F)cc4F)nc3c2=O)cc1 ... 0 (no)

Exercise: Lab log: compare recorded RP-LC retention time with 800 s; is it strictly lower for "CCc1noc(NC(C)=O)c1-c1ccc(OC)c(S(=O)(=O)Nc2cc(C)ccc2C)c1" ?
Key: 0 (no)

Exercise: Identify whether the molecule "c1ccc(-c2csc(Nc3cccnc3)n2)cc1" records RP-LC retention time below 800 s.
Key: 1 (yes)
